# Assay System: recombinant human IL-6 (human, UniProt P05231 30-212)
# Sequence (P05231 30-212 limits assumed): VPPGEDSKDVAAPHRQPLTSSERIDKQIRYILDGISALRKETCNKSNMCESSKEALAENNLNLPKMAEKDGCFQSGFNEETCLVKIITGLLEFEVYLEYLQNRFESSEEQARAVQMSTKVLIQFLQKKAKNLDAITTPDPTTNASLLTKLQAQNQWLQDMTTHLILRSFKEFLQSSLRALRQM
# Assay Summary: SPR, IL-6 on CM5 chip, Fab lysate, 25 C
Readout Label: koff (s⁻¹)

# Binder, Units, Value Reported
data = [
    ("anti-IL-6 Fab, heavy chain F27V (Fab, V domains shown, see m39) VH: EVQLVESGGGLVQPGGSLRLSCAASGVTFSPFAMSWVRQAPGKGLEWVAKISPGGSWTYYSDTVTGRFTFSLDTSKSTAYLQMNSLRAEDTAVYYCARQLWGYYALDIWGQGTLVTVSS VL: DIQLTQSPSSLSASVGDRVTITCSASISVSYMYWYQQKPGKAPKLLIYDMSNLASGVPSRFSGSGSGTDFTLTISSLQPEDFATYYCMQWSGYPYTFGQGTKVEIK", "s⁻¹", 0.00405),
]
